Tested on: Plasmodium falciparum
Experiment: Calibr Malaria Delayed Death Assay SOP
Type: functional, organism-based
Set-up: scale not given: in the data most compounds retested in dose-response had high values
Conditions: concentration 4.99e-06 (unit not given; other assays of the set use mol/L)
Out of some 38,000 compounds screened, about 1,200 (3.2%) showed an effect of 50% or more. The median lay at about -58%. The list comes from a sample in which strong results are over-represented; it also holds close analogues and randomly drawn compounds.
The entries below are paired with their reported Percent Effect.
quantity.measured: Percent Effect (%)

molecule: O=C(CCc1nc2ccccc2[nH]1)Nc1ccc2c(c1)OCC(=O)N2
quantity.measured: Percent Effect
data.value: -185.4
//
molecule: CC(OCC1CC1)C(=O)NCCC(=O)Nc1ccccn1 (stereo not drawn)
quantity.measured: Percent Effect
data.value: -13.51
//
molecule: CN(Cc1cccc(F)c1)C1CCN(CCc2ccccn2)CC1
quantity.measured: Percent Effect
data.value: -78.69
//
molecule: Cn1cc(C[C@H]2[C@H](O)CCN2Cc2ccc3c(c2)OCO3)cn1
quantity.measured: Percent Effect
data.value: -152.7
//
molecule: O=C1CC2(CCCC2)CC(=O)N1Cc1nc2ncccn2n1
quantity.measured: Percent Effect
data.value: -57.36
//
molecule: COc1cc(CNCC(O)c2ccc(C)cc2)cc2c1OCCO2.Cl (stereo not drawn)
quantity.measured: Percent Effect
data.value: 46.91
//
molecule: COc1ccc(CCNC(C)c2ccc3[nH]c(=O)[nH]c3c2)cc1OC (stereo not drawn)
quantity.measured: Percent Effect
data.value: -75.57
//
molecule: O=C(CCc1ccccc1)NCC1CCN(Cc2cccs2)CC1
quantity.measured: Percent Effect
data.value: -10.35
//
molecule: CN1CCN([C@@H]2CCN(Cc3cccc(-n4cccn4)c3)C[C@H]2O)CC1
quantity.measured: Percent Effect
data.value: -47.29
//
molecule: Cc1noc(C)c1CN1CCO[C@H]2CN(Cc3cccc(F)c3)C[C@H]21.O=C(O)C(F)(F)F.O=C(O)C(F)(F)F
quantity.measured: Percent Effect
data.value: -38.58
//
molecule: Cc1noc(C)c1CN1C[C@@H]2CC(F)(F)C[C@@H]2C1.O=C(O)C(F)(F)F
quantity.measured: Percent Effect
data.value: -65.49
//
molecule: Cc1ccc(C(C(=O)NCCN2CCC(CO)CC2)N(C)C)cc1 (stereo not drawn)
quantity.measured: Percent Effect
data.value: -10.34
//
molecule: Fc1ccccc1C1NCCc2cc3c(cc21)OCCO3 (stereo not drawn)
quantity.measured: Percent Effect
data.value: -25.34
//
molecule: O=C(NCCN1CCOC1=O)c1cnc(-c2cccnc2)nc1
quantity.measured: Percent Effect
data.value: -89.05
//
molecule: Cc1noc(C)c1CN1C[C@@H]2C[C@@H](C)O[C@@H]2C1.O=C(O)C(F)(F)F
quantity.measured: Percent Effect
data.value: -81.78
//
molecule: COCCNC(=O)c1nc(-c2ccc3cc[nH]c3c2)no1
quantity.measured: Percent Effect
data.value: -158.8
//
molecule: COc1ccc2c(c1)OCC(CNC(=O)c1cc(C(C)C)on1)C2 (stereo not drawn)
quantity.measured: Percent Effect
data.value: -29.19
//
molecule: CN1CC(NC(=O)Nc2cnn(-c3ccccc3Cl)c2)CCC1=O (stereo not drawn)
quantity.measured: Percent Effect
data.value: -125.7
//
molecule: CSCCC(Nc1nc(C)cc(C)n1)C(=O)NC(C)(C)CO (stereo not drawn)
quantity.measured: Percent Effect
data.value: -11.3
//
molecule: CCc1oc(C(=O)N[C@@H]2c3ccccc3C[C@@H]2O)cc1CN1CCCC1
quantity.measured: Percent Effect
data.value: -27.56
//
molecule: CN(CCc1ccccn1)C(=O)C(O)c1ccc(Br)cc1 (stereo not drawn)
quantity.measured: Percent Effect
data.value: -90
//
molecule: Cc1ncccc1C(=O)Nc1cccc(OCC(F)F)n1
quantity.measured: Percent Effect
data.value: -105.7
//
molecule: CC(C#N)CSc1ccccc1NCC(=O)Nc1ccccc1 (stereo not drawn)
quantity.measured: Percent Effect
data.value: -74.13
//
molecule: COc1cc(CNCc2ccc(C(C)O)cc2)cc2c1OCO2 (stereo not drawn)
quantity.measured: Percent Effect
data.value: 7.669
//
molecule: COc1ccc(CNCc2cc(Br)c3c(c2)OCO3)cc1
quantity.measured: Percent Effect
data.value: -51.11
//
molecule: CN(C[C@H]1CN2CC[C@H]1C[C@@H]2CNC(=O)c1ccco1)c1ccccc1
quantity.measured: Percent Effect
data.value: 70.91
//
molecule: CC(CNS(=O)(=O)c1cccc(Cl)c1)N1CCN(C)CC1 (stereo not drawn)
quantity.measured: Percent Effect
data.value: 77.12
//
molecule: CCc1nc(N2CCC3(CCC(=O)N(Cc4ccncc4)C3)CC2)no1
quantity.measured: Percent Effect
data.value: -12.44
//
molecule: CCN(CC)C[C@H]1CN2CC[C@H]1C[C@@H]2CNC(=O)c1ccco1
quantity.measured: Percent Effect
data.value: -99.74
//
molecule: O=C(NCCN1CCCCC1)C(c1ccccc1)N1CCCC1 (stereo not drawn)
quantity.measured: Percent Effect
data.value: 79.97
//
molecule: CN1CCN(CCNC(=O)C(OC2CCCC2)c2ccccc2)CC1 (stereo not drawn)
quantity.measured: Percent Effect
data.value: 38.55
//
molecule: CC(=O)c1ccc(-n2c(C)cn(CCS(C)(=O)=O)c2=O)cc1
quantity.measured: Percent Effect
data.value: 3.074
//
molecule: CCc1nc(CN2CCCN(C(=O)CCCOC)CC2)cs1
quantity.measured: Percent Effect
data.value: -51.29
//
molecule: CCc1noc(C(C)N(C)CC(=O)Nc2cccc(C)c2C)n1 (stereo not drawn)
quantity.measured: Percent Effect
data.value: -134.7
//
molecule: Cc1noc(C)c1CN1C[C@H]2CN(Cc3cccc(F)c3)C[C@H]2C1.O=C(O)C(F)(F)F.O=C(O)C(F)(F)F
quantity.measured: Percent Effect
data.value: 53.22
//
molecule: Cc1csc([C@H]2C[C@H]3CN(Cc4cc(C)on4)CC[C@@H]3O2)n1.O=C(O)C(F)(F)F
quantity.measured: Percent Effect
data.value: -119
//
molecule: N[C@H]1CN(C(=O)c2ccc(Cl)cc2O)C[C@@H]1C1CC1
quantity.measured: Percent Effect
data.value: 32.78
//
molecule: COC(=O)C(O)C1CCN(Cc2cccc(-n3cccn3)c2)CC1 (stereo not drawn)
quantity.measured: Percent Effect
data.value: -42.85
//
molecule: COc1cc(CNC(C)c2ccc(F)c(F)c2)cc2c1OCCO2.O=C(O)C(=O)O (stereo not drawn)
quantity.measured: Percent Effect
data.value: -10.9
//
molecule: CN(C)C(=O)CC1CC2(CCN(Cc3cccs3)CC2)c2ccccc21.O=C(O)C(F)(F)F (stereo not drawn)
quantity.measured: Percent Effect
data.value: 22.44
//
molecule: Cc1noc(C)c1CN1CCO[C@H]2CN(Cc3cnn(C)c3)C[C@H]21.O=C(O)C(F)(F)F.O=C(O)C(F)(F)F
quantity.measured: Percent Effect
data.value: 11.54
//
molecule: CCCOC1CCCN(c2nc(COC)nc3c2cnn3C)C1 (stereo not drawn)
quantity.measured: Percent Effect
data.value: -157.4
//
molecule: CC(C)NC(=O)c1nn(C)c(NC(=O)Cc2ccccc2)c1F
quantity.measured: Percent Effect
data.value: -24.59

Entry source: ChEMBL document CHEMBL3988442
